# Tested on: Streptococcus pneumoniae
# experimentSummary: Minimum inhibitory concentration against Streptococcus pneumoniae 6303 (erythromycin susceptible strain)
# Assay type: functional
readoutType: MIC (µg/mL)

P = CC[C@H]1OC(=O)[C@H](C)C(=O)[C@H](C)[C@@H](O[C@@H]2O[C@H](C)C[C@H](N(C)C)[C@H]2O)[C@](C)(OC/C=C/c2cnc3ccccc3c2)C[C@@H](C)C2=NCCN3C(=O)O[C@@]1(C)[C@H]3[C@H]2C
Q = CC[C@H]1OC(=O)[C@H](C)C(=O)[C@H](C)[C@@H](O[C@@H]2O[C@H](C)C[C@H](N(C)C)[C@H]2O)[C@](C)(OC/C=C/c2cnc3ccncc3c2)C[C@@H](C)C(=O)[C@H](C)[C@H]2NC(=O)O[C@@]21C
R = CC[C@H]1OC(=O)[C@H](C)C(=O)[C@H](C)[C@@H](O[C@@H]2O[C@H](C)C[C@H](N(C)C)[C@H]2O)[C@](C)(OC/C=C/c2ccc3ncncc3c2)C[C@@H](C)C(=O)[C@H](C)[C@H]2NC(=O)O[C@@]21C
S = CC[C@H]1OC(=O)[C@H](C)C(=O)[C@H](C)[C@@H](O[C@@H]2O[C@H](C)C[C@H](N(C)C)[C@H]2O)[C@](C)(OC/C=C/c2cnc3ccsc3c2)C[C@@H](C)C(=O)[C@H](C)[C@H]2NC(=O)O[C@@]21C
Challenge: Sort key = MIC. Sort direction = ascending. Apply to the list above. Note for the reader: the ranking is given by listing the labels in the order requested.
Response given: S, Q, R, P

This collection of values is drawn from ChEMBL document CHEMBL1134286.
